# Target Of Assay: ELP1;ELP2;ELP3 Y529A/Y530A (Homo sapiens;Homo sapiens;Homo sapiens, UniProt O95163;Q6IA86;Q9H9T3 1-1332;1-826;1-547, ||Y529A;Y530A)
# Sequence (O95163 whole entry, chain 1 of 3): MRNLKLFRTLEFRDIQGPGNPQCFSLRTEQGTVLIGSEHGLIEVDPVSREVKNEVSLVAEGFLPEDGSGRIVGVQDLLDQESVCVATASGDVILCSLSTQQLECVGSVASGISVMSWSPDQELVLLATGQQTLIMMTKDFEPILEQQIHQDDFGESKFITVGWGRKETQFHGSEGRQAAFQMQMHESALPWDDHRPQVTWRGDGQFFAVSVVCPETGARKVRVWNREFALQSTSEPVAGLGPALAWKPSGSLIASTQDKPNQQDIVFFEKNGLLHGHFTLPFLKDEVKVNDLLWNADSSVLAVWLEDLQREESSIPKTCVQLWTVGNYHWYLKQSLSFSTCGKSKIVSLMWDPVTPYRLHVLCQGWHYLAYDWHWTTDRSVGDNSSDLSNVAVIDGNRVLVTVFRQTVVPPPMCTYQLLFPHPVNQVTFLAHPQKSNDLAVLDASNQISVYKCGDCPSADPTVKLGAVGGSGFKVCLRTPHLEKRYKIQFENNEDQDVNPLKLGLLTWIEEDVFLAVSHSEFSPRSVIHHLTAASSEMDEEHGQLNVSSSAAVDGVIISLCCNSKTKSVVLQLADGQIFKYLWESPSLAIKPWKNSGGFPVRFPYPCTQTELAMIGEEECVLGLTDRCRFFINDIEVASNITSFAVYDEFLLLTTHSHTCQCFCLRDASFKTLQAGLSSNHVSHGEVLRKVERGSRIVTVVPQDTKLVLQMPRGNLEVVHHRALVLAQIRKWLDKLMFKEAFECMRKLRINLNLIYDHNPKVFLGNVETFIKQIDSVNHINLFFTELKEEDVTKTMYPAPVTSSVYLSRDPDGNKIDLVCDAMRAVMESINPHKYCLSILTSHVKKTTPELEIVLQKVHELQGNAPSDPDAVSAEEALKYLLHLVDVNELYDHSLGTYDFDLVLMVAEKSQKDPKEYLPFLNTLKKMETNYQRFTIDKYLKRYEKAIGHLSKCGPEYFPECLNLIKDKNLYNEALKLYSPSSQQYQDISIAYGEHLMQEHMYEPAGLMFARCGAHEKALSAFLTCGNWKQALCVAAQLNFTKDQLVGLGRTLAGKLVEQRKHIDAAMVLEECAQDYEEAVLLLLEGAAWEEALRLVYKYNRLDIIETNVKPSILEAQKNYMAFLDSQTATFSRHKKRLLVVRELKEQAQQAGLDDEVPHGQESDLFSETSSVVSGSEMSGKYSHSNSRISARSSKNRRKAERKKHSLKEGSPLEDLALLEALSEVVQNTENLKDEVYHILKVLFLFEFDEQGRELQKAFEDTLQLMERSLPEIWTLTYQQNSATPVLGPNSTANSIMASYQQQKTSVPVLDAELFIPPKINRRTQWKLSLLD
# Sequence (Q6IA86 whole entry, chain 2 of 3): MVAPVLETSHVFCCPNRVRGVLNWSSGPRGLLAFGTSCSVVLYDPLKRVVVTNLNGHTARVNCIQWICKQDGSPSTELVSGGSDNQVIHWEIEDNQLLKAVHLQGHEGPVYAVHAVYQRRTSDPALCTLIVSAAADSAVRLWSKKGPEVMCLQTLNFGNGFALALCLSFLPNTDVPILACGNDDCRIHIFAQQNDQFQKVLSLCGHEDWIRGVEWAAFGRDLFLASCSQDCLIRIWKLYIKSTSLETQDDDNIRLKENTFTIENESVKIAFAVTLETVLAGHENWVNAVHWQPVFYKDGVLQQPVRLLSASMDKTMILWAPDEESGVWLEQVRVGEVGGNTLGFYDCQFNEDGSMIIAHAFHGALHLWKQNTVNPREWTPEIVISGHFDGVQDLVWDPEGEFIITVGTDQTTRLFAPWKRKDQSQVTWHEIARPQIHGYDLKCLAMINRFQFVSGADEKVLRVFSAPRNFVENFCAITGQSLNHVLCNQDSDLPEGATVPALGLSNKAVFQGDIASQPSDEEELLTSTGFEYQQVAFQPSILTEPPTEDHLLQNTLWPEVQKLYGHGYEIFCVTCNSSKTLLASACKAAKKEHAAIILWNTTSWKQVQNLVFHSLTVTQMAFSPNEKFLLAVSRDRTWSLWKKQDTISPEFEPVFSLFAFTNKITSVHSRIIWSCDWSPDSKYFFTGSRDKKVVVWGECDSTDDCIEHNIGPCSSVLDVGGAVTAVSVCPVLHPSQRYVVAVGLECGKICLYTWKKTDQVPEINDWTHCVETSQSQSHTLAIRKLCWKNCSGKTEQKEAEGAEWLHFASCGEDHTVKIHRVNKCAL
# Sequence (Q9H9T3 whole entry Y529A/Y530A, chain 3 of 3): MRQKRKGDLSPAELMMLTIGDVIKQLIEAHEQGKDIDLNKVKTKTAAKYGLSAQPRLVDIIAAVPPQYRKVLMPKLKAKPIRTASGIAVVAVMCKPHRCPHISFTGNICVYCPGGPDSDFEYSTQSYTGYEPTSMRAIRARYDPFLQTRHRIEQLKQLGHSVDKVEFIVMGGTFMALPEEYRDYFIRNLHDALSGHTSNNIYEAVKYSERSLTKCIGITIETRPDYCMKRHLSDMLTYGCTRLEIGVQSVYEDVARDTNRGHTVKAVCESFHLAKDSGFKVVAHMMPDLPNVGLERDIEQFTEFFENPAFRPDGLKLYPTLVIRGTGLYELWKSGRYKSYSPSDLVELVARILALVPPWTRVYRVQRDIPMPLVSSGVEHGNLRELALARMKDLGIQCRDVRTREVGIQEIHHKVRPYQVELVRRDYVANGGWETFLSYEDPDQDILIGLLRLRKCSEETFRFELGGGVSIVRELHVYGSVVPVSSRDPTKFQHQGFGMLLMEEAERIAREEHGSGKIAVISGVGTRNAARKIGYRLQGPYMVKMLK
# Method Summary: MST; MST: 20 mM HEPES pH 7.5, 100 mM NaCl, 5 mM DTT, 0.05% Tween 20; incubated at 4 C 30 min, measured at 25 C; Cy5-tRNA 14 or 30 nM. Cryo-EM: 20 mM HEPES pH 7.5, 100 mM NaCl, 2 mM MgCl2, 2 mM DTT
# Measurement Parameters: protein: recombinant;recombinant;recombinant; tags: ;;C-terminal Twin-Strep-Tag; chain copies: 2;2;2; label: internal Cy5 (5% Cy5-CTP) for MST; tRNA fold
Recorded Endpoint: pKd
As a rule, pKd stands for the negative log10 of the concentration, concentration in M.

Please give the documented pKd of tRNAGlnUUG (structured_RNA) RNA: GGCCCCAUGGUGUAAUGGUUAGCACUCUGGACUUUGAAUCCAGCGAUCCGAGUUCAAAUCUCGGUGGGACCUCCA
7.02

Provenance of the data: paper PMC11096365
